- ASSAY NOTES: Pharmacokinetics in rats
- Format: in vivo, rat
- TEST CONTEXT: rat, plasma, po; rats, single dose; read-out: Absolute oral bioavailability
- Experimental: For toxicokinetic studies, this method was validated over a concentration range of 10 to 1000 ng/mL for a 50 μL plasma sample. Radiometric methods were used to measure [^14C]
RESULT TYPE: bioavailability (%)
Answers are plain numbers, in %.

Ask | Identify the reported bioavailability for the following entry. CCOCCn1nc(C(=O)NS(C)(=O)=O)c2nc(N(C)CC)nc(Nc3cc(C)ccn3)c21
Reply | 82

---

- ASSAY NOTES: clinical
- TEST CONTEXT: male, human, in vivo, Human Half-life
RESULT TYPE: half-life (h)
Numbers only, in h.

Ask | Identify the reported half-life for the following entry. CCCc1nn(C)c2c(=O)[nH]c(-c3cc(S(=O)(=O)N4CCN(C)CC4)ccc3OCC)nc12
Reply | 3.7
